system: Candida albicans SNY425 biofilm; assay: biofilm OD600 with compound plus antifungal (OD600 (absorbance)); higher = more biofilm remaining; details: assay detail: sustained inhibition (compound + antifungal during 90-min adherence and 24-h growth)
Listed here: items and their measured biofilm OD600.
// no unit, no text: just the number

Recorded biofilm OD600, per entry:
# compound, biofilm OD600
measured = [
    ("COC(=O)N[C@H](C(=O)N[C@@H](Cc1ccccc1)[C@@H](O)CN(Cc1ccc(-c2ccccn2)cc1)NC(=O)[C@@H](NC(=O)OC)C(C)(C)C)C(C)(C)C [atazanavir] + OC(Cn1cncn1)(Cn1cncn1)c1ccc(F)cc1F [fluconazole] (first compound 12.5 µM)", 0.173),
    ("NC(=O)c1cccc(-c2cccc(OC(=O)NC3CCCCC3)c2)c1 + OC(Cn1cncn1)(Cn1cncn1)c1ccc(F)cc1F [fluconazole] (first compound 12.5 µM)", 0.118),
]

Given item CCC[C@@]1(CCc2ccccc2)CC(O)=C([C@H](CC)c2cccc(NS(=O)(=O)c3ccc(C(F)(F)F)cn3)c2)C(=O)O1 [tipranavir] + CC[C@H](C)C[C@H](C)CCCCCCCCC(=O)N[C@H]1C[C@@H](O)[C@@H](NCCN)NC(=O)[C@@H]2[C@@H](O)CCN2C(=O)[C@H]([C@H](O)CCN)NC(=O)[C@H]([C@H](O)[C@@H](O)c2ccc(O)cc2)NC(=O)[C@@H]2C[C@@H](O)CN2C(=O)[C@H]([C@@H](C)O)NC1=O [caspofungin] (first compound 12.5 µM) , the value recorded as its biofilm OD600 is 0.192

====

Listed here: items and their measured biofilm OD600.
test system: Candida albicans SNY425 biofilm; experiment: biofilm OD600 with compound plus antifungal (OD600 (absorbance)); higher = more biofilm remaining; conditions: assay detail: disruption of 24-h mature biofilm (compound + antifungal for a second 24 h)
// no unit, no text: just the number

# compound, measuredTarget, reportedProperty, observedMeasurement
data = [
    ("CC(C)C[C@H](NC(=O)N[C@H](C(=O)N[C@@H](CCC(N)=O)C(=O)N[C@@H](C)C=O)[C@@H]1CCNC(=N)N1)C(=O)O [Elastatinal] + CC[C@H](C)C[C@H](C)CCCCCCCCC(=O)N[C@H]1C[C@@H](O)[C@@H](NCCN)NC(=O)[C@@H]2[C@@H](O)CCN2C(=O)[C@H]([C@H](O)CCN)NC(=O)[C@H]([C@H](O)[C@@H](O)c2ccc(O)cc2)NC(=O)[C@@H]2C[C@@H](O)CN2C(=O)[C@H]([C@@H](C)O)NC1=O [caspofungin] (first compound 12.5 µM)", "Candida albicans SNY425 biofilm", "biofilm OD600", 0.263),
]

Let's switch to this compound now.
Given item O=C(NCCCCN1CCOCC1)c1cc2ccccc2o1 + C[C@@H]1[C@H](O)[C@@H](C)/C=C/C=C/C=C/C=C/C=C/C=C/C=C/[C@H](O[C@@H]2O[C@H](C)[C@@H](O)[C@H](N)[C@@H]2O)C[C@@H]2O[C@](O)(C[C@@H](O)C[C@@H](O)[C@H](O)CC[C@@H](O)C[C@@H](O)CC(=O)O[C@H]1C)C[C@H](O)[C@H]2C(=O)O [amphotericin B] (first compound 12.5 µM) , the value recorded as its biofilm OD600 is 0.262

====

tested on: Candida albicans SNY425 biofilm; test: biofilm OD600 with compound plus antifungal (OD600 (absorbance)); higher = more biofilm remaining; conditions: assay detail: disruption of 24-h mature biofilm (compound + antifungal for a second 24 h)
Listed here: items and their measured biofilm OD600.

Recorded biofilm OD600, per entry:
# compound, observedMeasurement
measured = [
    ("C[C@H](NC(=O)[C@@H]1CCCN1C(=O)[C@@H]1CCCN1C(=O)[C@@H](O)[C@H](N)Cc1ccccc1)C(N)=O [Apstatin] + C[C@@H]1[C@H](O)[C@@H](C)/C=C/C=C/C=C/C=C/C=C/C=C/C=C/[C@H](O[C@@H]2O[C@H](C)[C@@H](O)[C@H](N)[C@@H]2O)C[C@@H]2O[C@](O)(C[C@@H](O)C[C@@H](O)[C@H](O)CC[C@@H](O)C[C@@H](O)CC(=O)O[C@H]1C)C[C@H](O)[C@H]2C(=O)O [amphotericin B] (first compound 12.5 µM)", 0.294),
    ("CC(C)(C)NC(=O)[C@@H]1C[C@@H]2CCCC[C@@H]2CN1C[C@@H](O)[C@H](Cc1ccccc1)NC(=O)[C@H](CC(N)=O)NC(=O)c1ccc2ccccc2n1 [saquinavir] + OC(Cn1cncn1)(Cn1cncn1)c1ccc(F)cc1F [fluconazole] (first compound 12.5 µM)", 0.255),
]

Let's switch to this compound now.
Given item CC(C)(C)NC(=O)[C@@H]1CN(Cc2cccnc2)CCN1C[C@@H](O)C[C@@H](Cc1ccccc1)C(=O)N[C@H]1c2ccccc2C[C@H]1O [indinavir] + C[C@@H]1[C@H](O)[C@@H](C)/C=C/C=C/C=C/C=C/C=C/C=C/C=C/[C@H](O[C@@H]2O[C@H](C)[C@@H](O)[C@H](N)[C@@H]2O)C[C@@H]2O[C@](O)(C[C@@H](O)C[C@@H](O)[C@H](O)CC[C@@H](O)C[C@@H](O)CC(=O)O[C@H]1C)C[C@H](O)[C@H]2C(=O)O [amphotericin B] (first compound 12.5 µM) , the value recorded as its biofilm OD600 is 0.283

====

test system: Candida albicans SNY425 biofilm; test: biofilm OD600 with compound plus antifungal (OD600 (absorbance)); higher = more biofilm remaining; details: assay detail: sustained inhibition (compound + antifungal during 90-min adherence and 24-h growth)
Where a name gives a salt, the structure may show the parent alone.
reportedProperty: biofilm OD600
// no unit, no text: just the number

Recorded biofilm OD600, per entry:
# compound, observedMeasurement
data = [
    ("O=C(O)CNC(=O)C(CS)Cc1ccccc1 (racemic) [DL-Thiorphan] + CC[C@H](C)C[C@H](C)CCCCCCCCC(=O)N[C@H]1C[C@@H](O)[C@@H](NCCN)NC(=O)[C@@H]2[C@@H](O)CCN2C(=O)[C@H]([C@H](O)CCN)NC(=O)[C@H]([C@H](O)[C@@H](O)c2ccc(O)cc2)NC(=O)[C@@H]2C[C@@H](O)CN2C(=O)[C@H]([C@@H](C)O)NC1=O [caspofungin] (first compound 12.5 µM)", 0.163),
    ("CC(C)(C)NC(=O)[C@@H]1CN(Cc2cccnc2)CCN1C[C@@H](O)C[C@@H](Cc1ccccc1)C(=O)N[C@H]1c2ccccc2C[C@H]1O [indinavir] + OC(Cn1cncn1)(Cn1cncn1)c1ccc(F)cc1F [fluconazole] (first compound 12.5 µM)", 0.17),
    ("CC(C)C[C@H](NC(=O)[C@H]1O[C@@H]1C(=O)O)C(=O)NCCCCN=C(N)N + CC[C@H](C)C[C@H](C)CCCCCCCCC(=O)N[C@H]1C[C@@H](O)[C@@H](NCCN)NC(=O)[C@@H]2[C@@H](O)CCN2C(=O)[C@H]([C@H](O)CCN)NC(=O)[C@H]([C@H](O)[C@@H](O)c2ccc(O)cc2)NC(=O)[C@@H]2C[C@@H](O)CN2C(=O)[C@H]([C@@H](C)O)NC1=O [caspofungin] (first compound 12.5 µM)", 0.18),
    ("CCCC[C@@H](C=O)NC(=O)OC(C)(C)C + C[C@@H]1[C@H](O)[C@@H](C)/C=C/C=C/C=C/C=C/C=C/C=C/C=C/[C@H](O[C@@H]2O[C@H](C)[C@@H](O)[C@H](N)[C@@H]2O)C[C@@H]2O[C@](O)(C[C@@H](O)C[C@@H](O)[C@H](O)CC[C@@H](O)C[C@@H](O)CC(=O)O[C@H]1C)C[C@H](O)[C@H]2C(=O)O [amphotericin B] (first compound 12.5 µM)", 0.188),
    ("N=C(N)Nc1ccc(C(=O)Oc2ccc3cc(C(=N)N)ccc3c2)cc1 [Nafamostat mesylate] + OC(Cn1cncn1)(Cn1cncn1)c1ccc(F)cc1F [fluconazole] (first compound 12.5 µM)", 0.104),
]

Let's switch to this compound now.
Given item CO[C@@H]1[C@H](OC(=O)/C=C/C=C/C=C/C=C/C(=O)O)CC[C@]2(CO2)[C@H]1[C@@]1(C)O[C@@H]1CC=C(C)C [Fumagillin] + OC(Cn1cncn1)(Cn1cncn1)c1ccc(F)cc1F [fluconazole] (first compound 12.5 µM) , the value recorded as its biofilm OD600 is 0.117

====

test system: Candida albicans SNY425 biofilm; assay: biofilm OD600 with compound plus antifungal (OD600 (absorbance)); higher = more biofilm remaining; conditions: assay detail: sustained inhibition (compound + antifungal during 90-min adherence and 24-h growth)
Listed here: items and their measured biofilm OD600.
// no unit, no text: just the number

Recorded biofilm OD600, per entry:
# compound, biofilm OD600
rows = [
    ("Cc1ccc(S(=O)(=O)N[C@@H](Cc2ccccc2)C(=O)CCl)cc1 + CC[C@H](C)C[C@H](C)CCCCCCCCC(=O)N[C@H]1C[C@@H](O)[C@@H](NCCN)NC(=O)[C@@H]2[C@@H](O)CCN2C(=O)[C@H]([C@H](O)CCN)NC(=O)[C@H]([C@H](O)[C@@H](O)c2ccc(O)cc2)NC(=O)[C@@H]2C[C@@H](O)CN2C(=O)[C@H]([C@@H](C)O)NC1=O [caspofungin] (first compound 4 µM)", 0.152),
    ("NCCCC[C@H](N[C@@H](CCc1ccccc1)C(=O)O)C(=O)N1CCC[C@H]1C(=O)O [Lisinopril] + OC(Cn1cncn1)(Cn1cncn1)c1ccc(F)cc1F [fluconazole] (first compound 12.5 µM)", 0.118),
]

Readout biofilm OD600 for CCN1C(=O)C=CC1=O [N-Ethylmaleimide] + C[C@@H]1[C@H](O)[C@@H](C)/C=C/C=C/C=C/C=C/C=C/C=C/C=C/[C@H](O[C@@H]2O[C@H](C)[C@@H](O)[C@H](N)[C@@H]2O)C[C@@H]2O[C@](O)(C[C@@H](O)C[C@@H](O)[C@H](O)CC[C@@H](O)C[C@@H](O)CC(=O)O[C@H]1C)C[C@H](O)[C@H]2C(=O)O [amphotericin B] (first compound 4 µM) , test system Candida albicans SNY425 biofilm, was 0.189

Readout biofilm OD600 for CC(C)c1nc(CN(C)C(=O)N[C@H](C(=O)N[C@@H](Cc2ccccc2)C[C@H](O)[C@H](Cc2ccccc2)NC(=O)OCc2cncs2)C(C)C)cs1 [ritonavir] + OC(Cn1cncn1)(Cn1cncn1)c1ccc(F)cc1F [fluconazole] (first compound 12.5 µM) , test system Candida albicans SNY425 biofilm, was 0.168

Readout biofilm OD600 for Cc1ccc(S(=O)(=O)N[C@@H](Cc2ccccc2)C(=O)CCl)cc1 + C[C@@H]1[C@H](O)[C@@H](C)/C=C/C=C/C=C/C=C/C=C/C=C/C=C/[C@H](O[C@@H]2O[C@H](C)[C@@H](O)[C@H](N)[C@@H]2O)C[C@@H]2O[C@](O)(C[C@@H](O)C[C@@H](O)[C@H](O)CC[C@@H](O)C[C@@H](O)CC(=O)O[C@H]1C)C[C@H](O)[C@H]2C(=O)O [amphotericin B] (first compound 4 µM) , test system Candida albicans SNY425 biofilm, was 0.158

Readout biofilm OD600 for NCC1CCC(C(=O)N[C@@H](Cc2ccccc2)C(=O)Nc2ccc(CC(=O)O)cc2)CC1 (stereo partly specified) + C[C@@H]1[C@H](O)[C@@H](C)/C=C/C=C/C=C/C=C/C=C/C=C/C=C/[C@H](O[C@@H]2O[C@H](C)[C@@H](O)[C@H](N)[C@@H]2O)C[C@@H]2O[C@](O)(C[C@@H](O)C[C@@H](O)[C@H](O)CC[C@@H](O)C[C@@H](O)CC(=O)O[C@H]1C)C[C@H](O)[C@H]2C(=O)O [amphotericin B] (first compound 12.5 µM) , test system Candida albicans SNY425 biofilm, was 0.182
